Tested on: p34cdc2/cyclin B (CDK1/cyclin B)
Experiment: Inhibition of the p34cdc2/cyclin B activity (32P transfer from ATP to histone H1)
Format: biochemical, starfish or human recombinant
Details: 10 μM
Attribute: CDK1 % inhibition at 10 μM
Write the value in % as a bare number.

For orientation, consider the following solved cases.
Cc1nc[nH]c1C=C1C(=O)Nc2ccc(S(N)(=O)=O)cc21    100
CC(=O)Nc1ccc2c(c1)C(=Cc1c[nH]cn1)C(=O)N2    100
O=C1Nc2ccc(Br)cc2C1=Cc1cnc[nH]1    100

Problem: Tell me the measured CDK1 % inhibition at 10 μM of Cc1nc[nH]c1C=C1C(=O)Nc2ccc(-c3cccnc3)cc21 , please.
Result: 100

Problem: Tell me the measured CDK1 % inhibition at 10 μM of Cc1nc[nH]c1C=C1C(=O)Nc2ccc(C(=O)O)cc21 , please.
Result: 100

Problem: Tell me the measured CDK1 % inhibition at 10 μM of O=C1Nc2ccc([N+](=O)[O-])cc2C1=Cc1ccc[nH]1 , please.
Result: 91

Problem: Tell me the measured CDK1 % inhibition at 10 μM of O=C1Nc2ccc([N+](=O)[O-])cc2C1=Cc1cnc[nH]1 , please.
Result: 81

Problem: Tell me the measured CDK1 % inhibition at 10 μM of CNC(=O)c1ccc2c(c1)C(=Cc1c[nH]cn1)C(=O)N2 , please.
Result: 100

Problem: Tell me the measured CDK1 % inhibition at 10 μM of O=C1Nc2ccc(C(=O)c3cccs3)cc2C1=Cc1cnc[nH]1 , please.
Result: 100

###

Tested on: HCT-116
Experiment: cells
Settings: Homo sapiens, HCT-116, 288 h, read-out: IC50 inhibition of clonogenicity
metric-name: IC50 (nM)
Write the value in nM as a bare number.

Problem: Tell me the measured IC50 of O=C1Nc2ccc(-c3cccnc3)cc2C1=Cc1cnc[nH]1 , please.
Result: 280

###

System: HCT-8
Assay: cells
Conditions: Homo sapiens, HCT-8, 288 h, read-out: IC50 inhibition of clonogenicity
metric-name: pIC50
Reminder that pIC50 means the negative base-10 logarithm of the concentration expressed in mol/L.

Problem: Tell me the measured pIC50 of O=C1Nc2ccc(-c3cccnc3)cc2C1=Cc1cnc[nH]1 , please.
Result: 5.98

Recorded values, source patent US20040110770A1.
